assay: Toxicity against mouse 3T3 cells by resazurin assay; assay type: cell-based; details: NIH3T3 cells
pEC50: −log10 of the molar value.
Value Kind: pEC50

Provide pEC50 for all items below, preserving their order.
1. CNC(=O)c1ccc(NCc2cncn2Cc2ccc(-c3ccccc3)cc2N)cc1-c1ccccc1
2. COC(=O)c1ccc(NCc2cncn2Cc2ccccc2C#N)cc1-c1ccccc1

**A:**
< 6.00
4.60

Provide pEC50 for all items below, preserving their order.
1. Cc1ccc(Cn2cncc2CNc2cccc(-c3ccccc3)c2)cc1
2. c1ccc(Cn2cncc2CNc2cccc(-c3cccnc3)c2)cc1
3. COC(=O)c1ccc(NCc2cncn2Cc2cccc(Cl)c2)cc1-c1ccccc1
4. COC(=O)c1ccc(NCc2cncn2Cc2ccccc2Br)cc1-c1ccccc1
5. CCOC(=O)c1ccc(NCc2cncn2Cc2ccc(-c3ccccc3)cc2)cc1-c1ccccc1
6. c1ccc(Cn2cncc2CNc2cccc(-c3ccncc3)c2)cc1

**A:**
1. 5.00
2. < 6.00
3. < 5.00
4. 5.00
5. < 5.00
6. < 6.00

Provide pEC50 for all items below, preserving their order.
1. COC(=O)c1ccc(NCc2cncn2Cc2ccc(C#N)cc2)cc1-c1ccccc1
2. CC(=O)c1ccc(NCc2cncn2Cc2ccc(-c3ccccc3)cc2)cc1-c1ccccc1
3. Cc1ccccc1-c1cc(NCc2cncn2Cc2ccc(-c3ccccc3)cc2)ccc1-c1nc2ccccc2s1
4. CNC(=O)c1ccc(NCc2cncn2Cc2ccc(-c3ccccc3)cc2)cc1-c1ccccc1
5. c1ccc(-c2ccc(Cn3cncc3CNc3ccc(-c4ccccc4)cc3)cc2)cc1

**A:**
1. < 5.00
2. < 5.00
3. < 6.00
4. < 6.00
5. < 5.00

Recorded values, source ChEMBL document CHEMBL1136968.
